System: RARb homodimer (NR concentration 270 nM)
measurement protocol: PBM binding z-score (relative to random genomic background probes); higher = stronger binding; sequences stand for … in GC…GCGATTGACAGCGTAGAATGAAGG

{"biosequence": "ATCTCTAGGGAAAAGTTCAGTGAATCCCGAGGAT", "PBM binding z-score": 2.03}
{"biosequence": "GCTTGTAGATCAAGGTTAAGATAGACTAAGCTAA", "PBM binding z-score": 0.293}
{"biosequence": "CTAACTAGGTCATTGACAGGACAGTGAATAGTAA", "PBM binding z-score": 2.61}
{"biosequence": "CTCTAAAGGTCGTGCTCAGGTGAGTATACCAAAC", "PBM binding z-score": 2.96}
{"biosequence": "CAAACTAGGTAAAAGGTCAAAGTCGAGCCAACCA", "PBM binding z-score": 4.69}
{"biosequence": "CGTCTAAGGTCAATGCTAGGTCAGTGAAAGCATT", "PBM binding z-score": 5.09}
{"biosequence": "CCTTACGGGTCATGAGGTTATAGCACGACGAGCG", "PBM binding z-score": 3.4}
{"biosequence": "AGTCATAGTTCATCTAGGTAACGTAAGATATGCT", "PBM binding z-score": 2.23}
{"biosequence": "TCTATTAGTCGATTAGGGCAACCGAAACAGCGGA", "PBM binding z-score": 0.367}
{"biosequence": "CTCGAAAGGTCGTGCTCAGGTGACTATACCAAAC", "PBM binding z-score": 3.17}
{"biosequence": "CCTACTGGGCCACGAAAGGTCATTGCTTCAGTGA", "PBM binding z-score": 4.75}
{"biosequence": "AGTCAATGTTCAGGACGAGGTAACGTAAAGCACG", "PBM binding z-score": 0.0341}
{"biosequence": "ATCGAAAGGTCGACGAGGTGAGTACACACCGTTT", "PBM binding z-score": 3.26}
{"biosequence": "GGAACGAGGGCAAGTTGATCGCAGAGTTTGATGG", "PBM binding z-score": 1.5}
{"biosequence": "TAGCCTAGGTCAGATCGGGCCAGGATACGCTATA", "PBM binding z-score": 1.88}
{"biosequence": "TCATATAGGTAAAGGCTAGGTGAAAGTCCGATCT", "PBM binding z-score": 0.981}
{"biosequence": "CCTAGTTGGTCAGGGTCACACACGCTATAGGTAC", "PBM binding z-score": 3.88}
{"biosequence": "ATCGAAAGGTTGTGAGGTGAGTATACAGAAAGGC", "PBM binding z-score": 1.22}
{"biosequence": "CCTGGTTGGTCAAGGTCACACACGCTATAGGTAC", "PBM binding z-score": 4.45}
{"biosequence": "CCGACTGGGGCAAGGTTACCTTAACGCACAGCCA", "PBM binding z-score": 1.27}
{"biosequence": "AGAATGAGTTTAAGATCAGGGAAACAGAATACAT", "PBM binding z-score": -0.102}
{"biosequence": "TTACCAAGGTGAGCTGAGTTCGTTGATCCAACTC", "PBM binding z-score": 0.421}
{"biosequence": "ATCTCTAGGTAAGACTCAGTTCCGTGAAGAACGC", "PBM binding z-score": 0.119}
{"biosequence": "AGAACGAGGGCAATGAGTTGATATCACGGGTGGC", "PBM binding z-score": 1.12}
{"biosequence": "GATACAGGGTCAGCTCGAGGCCAGAGTATGGAAA", "PBM binding z-score": 3.45}
{"biosequence": "TCTATTAGTTGATCAGGGCAACCGAAACAGCGGA", "PBM binding z-score": 0.681}

---

System: VDR homodimer (NR concentration 270 nM)
measurement protocol: PBM binding z-score (relative to random genomic background probes); higher = stronger binding; sequences stand for … in GC…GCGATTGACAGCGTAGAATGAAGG
endpoint label: PBM binding z-score

{"biosequence": "CCGAGTAGGTTATGGCGCATTCAGGCAACGGTGA", "subject of test": "VDR homodimer (NR concentration 270 nM)", "quantitative result": -0.2}
{"biosequence": "CCTGGTAGGTCATGGTCAGCTAATCTACAGTATG", "subject of test": "VDR homodimer (NR concentration 270 nM)", "quantitative result": 0.706}
{"biosequence": "TATACAGGGTCACAGGCCAGAGTACGAATGTCGA", "subject of test": "VDR homodimer (NR concentration 270 nM)", "quantitative result": 2.51}
{"biosequence": "CGAACTAGGTCAGCACAGGACAGTGAAGGATGAT", "subject of test": "VDR homodimer (NR concentration 270 nM)", "quantitative result": -0.111}
{"biosequence": "TCGAGTAGGTTACCAATGGTGCATTCAGCTTTCT", "subject of test": "VDR homodimer (NR concentration 270 nM)", "quantitative result": -0.499}
{"biosequence": "CGAACTAGGTCAAGGACGGTGAATCTCCGCACGC", "subject of test": "VDR homodimer (NR concentration 270 nM)", "quantitative result": -0.409}
{"biosequence": "GCCACTGGGGCAAAGCAGGTTACCATAAGGTTGG", "subject of test": "VDR homodimer (NR concentration 270 nM)", "quantitative result": -0.617}
{"biosequence": "CGAACTAGGTCATCCAGGACAGCGAATACATTGA", "subject of test": "VDR homodimer (NR concentration 270 nM)", "quantitative result": 1.93}
{"biosequence": "CAAACTAGGTCACCGGAAGGCCAAAGTCCGCATG", "subject of test": "VDR homodimer (NR concentration 270 nM)", "quantitative result": 0.943}
{"biosequence": "ACTAGCAGGCCAAGTTTGGTTCACTCAAACAAAG", "subject of test": "VDR homodimer (NR concentration 270 nM)", "quantitative result": 0.338}
{"biosequence": "CGTCAAAGTTCAACTAAGGAAACGTAAAGCACGC", "subject of test": "VDR homodimer (NR concentration 270 nM)", "quantitative result": 3.88}
{"biosequence": "TCTTGTAGATCAGCAGGTTCAGAAAGCTGGCCAA", "subject of test": "VDR homodimer (NR concentration 270 nM)", "quantitative result": 1.58}

---

Test system: THRa:RXRa (NR concentration 90 nM, RXRa partner concentration 90 nM)
measurement protocol: PBM binding z-score (relative to random genomic background probes); higher = stronger binding; sequences stand for … in GC…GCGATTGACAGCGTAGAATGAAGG
endpoint label: PBM binding z-score

{"biosequence": "TCTATTAGTTGAAGGGCCACCGACGAGTCCGTTT", "endpoint label": "PBM binding z-score", "quantitative result": 0.074}
{"biosequence": "TCATATAGGTAAAAGGTGAAAGTGGGTGTGGTAA", "endpoint label": "PBM binding z-score", "quantitative result": 2.07}
{"biosequence": "TCTTGTAGATCAGCACGTTAAGAAAGCTGGCCAA", "endpoint label": "PBM binding z-score", "quantitative result": -0.261}
{"biosequence": "CCGACTGGGGCAAGGTTACCGTAACGCACAGCCA", "endpoint label": "PBM binding z-score", "quantitative result": 1.22}
{"biosequence": "TAGCCTATGTCAGATCGGGCCAGTATACGCTATA", "endpoint label": "PBM binding z-score", "quantitative result": 1.45}
{"biosequence": "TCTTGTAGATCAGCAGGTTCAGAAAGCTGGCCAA", "endpoint label": "PBM binding z-score", "quantitative result": 0.00022}
{"biosequence": "AGAATGAGGTTATACGTAGACCAGGGAAGAAAGT", "endpoint label": "PBM binding z-score", "quantitative result": 1.98}
{"biosequence": "CGAACTAGGTCATCCAGGACACTGAATACATTGA", "endpoint label": "PBM binding z-score", "quantitative result": 4.19}
{"biosequence": "ATATGTAGGTTATCGGTTCATTCAGTTTGCGCAT", "endpoint label": "PBM binding z-score", "quantitative result": 1.27}
{"biosequence": "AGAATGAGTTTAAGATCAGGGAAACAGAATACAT", "endpoint label": "PBM binding z-score", "quantitative result": 0.276}
{"biosequence": "CCGACTGGGGCATAAGGTTAGCATAAGCCAGCCC", "endpoint label": "PBM binding z-score", "quantitative result": 1.01}
{"biosequence": "CGAACGAGGCCATGAGTTGATAGCAAATGCCGAT", "endpoint label": "PBM binding z-score", "quantitative result": 0.837}
{"biosequence": "TTACCAAGGTGAAAGGTCGTTCATGCACGCCTTG", "endpoint label": "PBM binding z-score", "quantitative result": 3.24}
{"biosequence": "CCAGACAGGTGAGAAGGTCACTCAGCCTCGATTA", "endpoint label": "PBM binding z-score", "quantitative result": 2.46}
{"biosequence": "ATCGAAAGGTTGACGAGGTGAGTATACACCGTTT", "endpoint label": "PBM binding z-score", "quantitative result": 2.62}
{"biosequence": "TCTTGTAGATCAAGCAGGTTAGGAAAGCCTGAGT", "endpoint label": "PBM binding z-score", "quantitative result": 0.0299}
{"biosequence": "ATCTCTAGGTAACACGTTCAGTGAAAGAGAGGAC", "endpoint label": "PBM binding z-score", "quantitative result": 0.954}
{"biosequence": "ATCGAAAGGTCGAAGGTGAGTGTACCCACCCGAA", "endpoint label": "PBM binding z-score", "quantitative result": 2.3}
{"biosequence": "ACTCGGAGGACAAAGGTCAGAGATACGCCAGTGA", "endpoint label": "PBM binding z-score", "quantitative result": 3.61}
{"biosequence": "AATACAGGGTCATCATAGGCCAGAGTACGCACAG", "endpoint label": "PBM binding z-score", "quantitative result": 4.39}
{"biosequence": "CCGACTGGGGCAGAATGGTTACCATACCATCCGG", "endpoint label": "PBM binding z-score", "quantitative result": -0.891}
{"biosequence": "ATATGTAGGTTACAACCGGGTCATTCAGGCTATG", "endpoint label": "PBM binding z-score", "quantitative result": 3.73}
{"biosequence": "CCTTACGGCTCACGAGGTTATAGCACGACGAGCG", "endpoint label": "PBM binding z-score", "quantitative result": 1.39}
{"biosequence": "GGAACGAGGGCAAAGTGGATAGCATCTGTCGACG", "endpoint label": "PBM binding z-score", "quantitative result": 0.965}
{"biosequence": "CGTCCTAGGTCAATGCTAGGTCAGTGAAAGCATT", "endpoint label": "PBM binding z-score", "quantitative result": 3.94}
{"biosequence": "TCATATAGGTGAACAGGTGAAAGTCCGTAAGTTA", "endpoint label": "PBM binding z-score", "quantitative result": 1.13}
